Assay: qHTS assay to identify small molecule antagonists of the estrogen receptor alpha (ER-alpha) signaling pathway using the BG1 cell line in the presence of 0.1 nM 17-beta-estradiol - cell viability counter screen (AID 1259241); further: nearly all actives have a fitted effect of over 40% in size
Conditions: VM7Luc4E2 (BG1) viability, CellTiter-Fluor protease, 22 h, 0.1 nM estradiol agonist added; series mostly up to 92.4 µM
Records with an inconclusive call do not appear. Calls of active or inactive are those of the source. The call rests on the fitted dose curve; in most records, active means well fitted cell-killing curve with a large enough effect in the repeat runs; inconclusive means weak or mixed curves, or effect the other way; inactive means flat fitted curve, though single readings scatter.
Please answer using one outcome listed in Yes (active), No (inactive)

The examples below pair each entry with its known result.
molecule	group
C#CCN(C)Cc1ccccc1	No
c1ccc2c(c1)ccc1ccccc12	No

Now take the following molecule into account.
# input Assay outcome for O=S1(=O)CC=CC1 : what was it?
# output No
